target: N501Y mutant RBD (SARS-CoV-2 Alpha (B.1.1.7), RBD N501Y, N501Y); test: BLI
property name: Kd (nM)
Just the number in nM, nothing appended.

# annotated cases, reported Kd shown
- Y6.8 (scFv, V domains shown) VH: QVQLQQSGAEVKKPGSSVKVSCKASGGTFGNWTISWVRQAPGQGLEWMGGIAPDRGEATYAQKFQGRVTITTDESTSTAYMELSSLRSEDTAVYYCARETWYTSGGMDVWGQGTTVTVSS VL: SYELTQPPSVSVAPGKTARITCGGNNIGRKSVHWYQQKPGQAPVLVVYDDSDRPSGIPERFSGSNSGNTATLTISRVEAGDEADYYCQVYDLWSSDYVFGTGTKVEIK: 93.5
- Y9.7 (scFv, V domains shown) VH: QVQLQQSGAEVKKPGSSVKVSCKASGGTFGNWSISWVRQAPGQGLEWMGGINPSIGEATYAQKFQGRVTITTDESTSTAYMELSSLRSEDTAVYYCARETWYTSGGMDVWGQGTTVTVSS VL: SYELTQPPSVSVAPGKTARITCGGNNIGRKSVHWYQQKPGQAPVLVVYDDSDRPSGIPERFSGSNSGNTATLTISRVEAGDEADYYCQVYDLWSSDYVFGTGTKVEIK: 79.2

Now turn to the next binder.
Q: Return Kd (reported value) for this binder: Y4.2 (D27LEY), scFv (scFv, V domains shown) VH: QVQLQQSGAEVKKPGSSVKVSCKASGGTFGNWSISWVRQAPGQGLEWMGGIAPGRGEATYAQKFQGRVTITTDESTSTAYMELSSLRSEDTAVYYCARETWYTSGGMDVWGQGTTVTVSS VL: SYELTQPPSVSVAPGKTARITCGGNNIGRKSVHWYQQKPGQAPVLVVYDDSDRPSGIPERFSGSNSGNTATLTISRVEAGDEADYYCQVYDLWSSDYVFGTGTKVEIK
Ans: 9.4

These measurements were taken from paper PMC8765073.
